Value source: the supplement of paper PMC11061612

# Tested on: LS-513 (Colorectal Carcinoma)
# METHOD DESCRIPTION: combination Emax (second highest fraction inhibited in the dose matrix, 72 h); higher = more inhibition; extreme values may be limits of the assay
EXPERIMENTAL READOUT: combination Emax

Check out these entries, answers already filled in.
- MOLECULE: "CC1(C)CCC(CN2CCN(c3ccc(C(=O)NS(=O)(=O)c4ccc(NCC5CCOCC5)c([N+](=O)[O-])c4)c(Oc4cnc5[nH]ccc5c4)c3)CC2)=C(c2ccc(Cl)cc2)C1 [Venetoclax] + Cc1cc2ncnn2cc1Nc1ncc2c(n1)n(C1CCOCC1)c(=O)n2C [AZD7648] (first compound max 1 µM, 7x7, partner max 10 µM)"
  EXPERIMENTAL READOUT: "combination Emax"
  OBSERVED VALUE: 0.192
- MOLECULE: "CC1(C)CCC(CN2CCN(c3ccc(C(=O)NS(=O)(=O)c4ccc(NCC5CCOCC5)c([N+](=O)[O-])c4)c(Oc4cnc5[nH]ccc5c4)c3)CC2)=C(c2ccc(Cl)cc2)C1 [Venetoclax] + Cn1cnc2c(F)c(Nc3ccc(Br)cc3Cl)c(C(=O)NOCCO)cc21 [Selumetinib] (first compound max 1 µM, 7x7, partner max 3 µM)"
  EXPERIMENTAL READOUT: "combination Emax"
  OBSERVED VALUE: 0.717

Quick check: combination Emax of C[C@@H](Oc1cc(-c2cnn(C3CCNCC3)c2)cnc1N)c1c(Cl)ccc(F)c1Cl [Crizotinib] + CC1=C(C(=CC=C1)Cl)NC(=O)C2=CN=C(S2)NC3=CC(=NC(=N3)C)N4CCN(CC4)CCO [Dasatinib] (first compound max 10 µM, 7x7, partner max 2 µM) ?
0.978

---

# Tested on: 697 (B-Lymphoblastic Leukemia)
# METHOD DESCRIPTION: combination Emax (second highest fraction inhibited in the dose matrix, 72 h); higher = more inhibition; extreme values may be limits of the assay
Listing of recorded combination Emax by entry.
The answer should be a number; do not append a unit.

- COMPOUND: "CC1(C)CCC(CN2CCN(c3ccc(C(=O)NS(=O)(=O)c4ccc(NCC5CCOCC5)c([N+](=O)[O-])c4)c(Oc4cnc5[nH]ccc5c4)c3)CC2)=C(c2ccc(Cl)cc2)C1 [Venetoclax] + CN(C)CCCOc1ccc(-c2ccc3ncc4c(c3c2)n(C2CCOCC2)c(=O)n4C)cn1 [AZD0156] (first compound max 1 µM, 7x7, partner max 1 µM)"
  OBSERVED VALUE: 0.988

I would be grateful if you could share the reported combination Emax for Cc1c2c(nn1C)CSCc1cc(n(C)n1)CSc1cc(c3ccccc3c1)OCCCc1c(C(=O)O)n(C)c3c-2c(Cl)ccc13 [AZD5991] + C1CN(CCC1(C(=O)N[C@@H](CCO)C2=CC=C(C=C2)Cl)N)C3=NC=NC4=C3C=CN4 [Capivasertib] (first compound max 1 µM, 7x7, partner max 3 µM) .
1

Looking for the measured combination Emax of Cc1cc2ncnn2cc1Nc1ncc2c(n1)n(C1CCOCC1)c(=O)n2C [AZD7648] + CCN(CCO)CCCOc1ccc2c(Nc3cc(CC(=O)Nc4cccc(F)c4)[nH]n3)ncnc2c1 [AZD2811] (first compound max 10 µM, 7x7, partner max 1 µM) , can you help?
1

So what does the record say about combination Emax for CC1(C)CCC(CN2CCN(c3ccc(C(=O)NS(=O)(=O)c4ccc(NCC5CCOCC5)c([N+](=O)[O-])c4)c(Oc4cnc5[nH]ccc5c4)c3)CC2)=C(c2ccc(Cl)cc2)C1 [Venetoclax] + C[C@@H](Nc1cc(F)cc(F)c1)c1cc(C(=O)N(C)C)cc2c(=O)cc(N3CCOCC3)oc12 [AZD8186] (first compound max 1 µM, 7x7, partner max 3 µM) ?
0.986

Which combination Emax reading was recorded for the compound COc1cccc2c1C(=O)c1c(O)c3c(c(O)c1C2=O)C[C@@](O)(C(=O)CO)C[C@@H]3O[C@H]1C[C@H](N)[C@H](O)[C@H](C)O1 [Doxorubicin] + Cc1cc2ncnn2cc1Nc1ncc2c(n1)n(C1CCOCC1)c(=O)n2C [AZD7648] (first compound max 1 µM, 7x7, partner max 10 µM) ?
1

Would you kindly share the measured combination Emax for CC1(C)CCC(CN2CCN(c3ccc(C(=O)NS(=O)(=O)c4ccc(NCC5CCOCC5)c([N+](=O)[O-])c4)c(Oc4cnc5[nH]ccc5c4)c3)CC2)=C(c2ccc(Cl)cc2)C1 [Venetoclax] + C1CN(CCC1(C(=O)N[C@@H](CCO)C2=CC=C(C=C2)Cl)N)C3=NC=NC4=C3C=CN4 [Capivasertib] (first compound max 1 µM, 7x7, partner max 3 µM) ?
0.988

---

# System: LS-513 (Colorectal Carcinoma)
# METHOD DESCRIPTION: Bliss excess, mean over the matrix (fraction); higher = more synergy
Below: a set of entries, each annotated with reported Bliss excess.
Just the number, please, no unit after it.

Some compounds with recorded Bliss excess:
- COMPOUND: "CN(C)CCCOc1ccc(-c2ccc3ncc4c(c3c2)n(C2CCOCC2)c(=O)n4C)cn1 [AZD0156] + C[C@@H]1COCCN1C2=NC(=NC(=C2)C3(CC3)[S@](=N)(=O)C)C4=C5C=CNC5=NC=C4 [AZD6738] (first compound max 1 µM, 7x7, partner max 10 µM)"
  Bliss excess: 0.0068
- COMPOUND: "N#Cc1cnc(Nc2cc(NC[C@H]3CNCCO3)c(C(F)(F)F)cn2)cn1 [SRA737] + Nc1ccn([C@@H]2O[C@H](CO)[C@@H](O)C2(F)F)c(=O)n1 [Gemcitabine] (first compound max 10 µM, 7x7, partner max 0.3 µM)"
  Bliss excess: -0.0189
- COMPOUND: "C[C@@H]1COCCN1c1cc(C2([S@](C)(=N)=O)CC2)nc(-c2ccnc3[nH]ccc23)n1 [AZD6738] + Nc1ccn([C@@H]2O[C@H](CO)[C@@H](O)C2(F)F)c(=O)n1 [Gemcitabine] (first compound max 10 µM, 7x7, partner max 0.3 µM)"
  Bliss excess: -0.0336
- COMPOUND: "Cc1c2c(nn1C)CSCc1cc(n(C)n1)CSc1cc(c3ccccc3c1)OCCCc1c(C(=O)O)n(C)c3c-2c(Cl)ccc13 [AZD5991] + C[C@@H]1COCCN1C2=NC(=NC(=C2)C3(CC3)[S@](=N)(=O)C)C4=C5C=CNC5=NC=C4 [AZD6738] (first compound max 1 µM, 7x7, partner max 10 µM)"
  Bliss excess: 0.0383
- COMPOUND: "CC1(C)CCC(CN2CCN(c3ccc(C(=O)NS(=O)(=O)c4ccc(NCC5CCOCC5)c([N+](=O)[O-])c4)c(Oc4cnc5[nH]ccc5c4)c3)CC2)=C(c2ccc(Cl)cc2)C1 [Venetoclax] + CN(C)CCCOc1ccc(-c2ccc3ncc4c(c3c2)n(C2CCOCC2)c(=O)n4C)cn1 [AZD0156] (first compound max 1 µM, 7x7, partner max 1 µM)"
  Bliss excess: -0.0273

// lookup Bliss excess for NC1(C(=O)N[C@@H](CCO)c2ccc(Cl)cc2)CCN(c2ncnc3[nH]ccc23)CC1 [Capivasertib] + Cn1cnc2c(F)c(Nc3ccc(Br)cc3Cl)c(C(=O)NOCCO)cc21 [Selumetinib] (first compound max 10 µM, 7x7, partner max 10 µM)
0.0031

Entry CC1(C)CCC(CN2CCN(c3ccc(C(=O)NS(=O)(=O)c4ccc(NCC5CCOCC5)c([N+](=O)[O-])c4)c(Oc4cnc5[nH]ccc5c4)c3)CC2)=C(c2ccc(Cl)cc2)C1 [Venetoclax] + C1CN(CCC1(C(=O)N[C@@H](CCO)C2=CC=C(C=C2)Cl)N)C3=NC=NC4=C3C=CN4 [Capivasertib] (first compound max 1 µM, 7x7, partner max 3 µM) has what Bliss excess?
-0.0649

Any idea what Bliss excess was measured for COc1nnc2ccc(N3CCC(c4ccc(OCCN5CCN(C)C(=O)[C@H]5C)cc4)CC3)nn12 [AZD5153] + CCN(CCO)CCCOc1ccc2c(Nc3cc(CC(=O)Nc4cccc(F)c4)[nH]n3)ncnc2c1 [AZD2811] (first compound max 1 µM, 7x7, partner max 1 µM) ?
-0.102

---

# Test system: G-292-Clone-A141B1 (Osteosarcoma)
# METHOD DESCRIPTION: combination Emax (second highest fraction inhibited in the dose matrix, 72 h); higher = more inhibition; extreme values may be limits of the assay
In this section we review reported combination Emax values for a set of compounds.
Keep the answer to the number alone.

- COMPOUND: "Cc1c2c(nn1C)CSCc1cc(n(C)n1)CSc1cc(c3ccccc3c1)OCCCc1c(C(=O)O)n(C)c3c-2c(Cl)ccc13 [AZD5991] + Cc1cc2ncnn2cc1Nc1ncc2c(n1)n(C1CCOCC1)c(=O)n2C [AZD7648] (first compound max 1 µM, 7x7, partner max 10 µM)"
  combination Emax: 0.267
- COMPOUND: "COc1cc2c(cc1OCCCCCOc1cc3c(cc1OC)C(=O)N1C=C(C)C[C@H]1C=N3)N=C[C@@H]1CC(C)=CN1C2=O [SG3199] + O=C(c1cc(Cc2n[nH]c(=O)c3ccccc23)ccc1F)N1CCN(C(=O)C2CC2)CC1 [Olaparib] (first compound max 0.001 µM, 7x7, partner max 10 µM)"
  combination Emax: 0.145

Can you look up the measured combination Emax of C[C@@H](c1ccc2nccn2c1)n1nnc2ncc(-c3cnn(C)c3)nc21 [Savolitinib] + Cc1c2c(nn1C)CSCc1cc(n(C)n1)CSc1cc(c3ccccc3c1)OCCCc1c(C(=O)O)n(C)c3c-2c(Cl)ccc13 [AZD5991] (first compound max 1 µM, 7x7, partner max 1 µM) for me?
0.138

Sample Cn1cnc2c(F)c(Nc3ccc(Br)cc3Cl)c(C(=O)NOCCO)cc21 [Selumetinib] + CC(C)n1c(=O)n(C)c2cnc3cc(F)c(-c4ccc(OCCCN5CCCCC5)nc4)cc3c21 [AZD1390] (first compound max 10 µM, 7x7, partner max 0.3 µM) — what was its combination Emax?
0.0339

Reported combination Emax for Cc1cc2ncnn2cc1Nc1ncc2c(n1)n(C1CCOCC1)c(=O)n2C [AZD7648] + O=C(c1cc(Cc2n[nH]c(=O)c3ccccc23)ccc1F)N1CCN(C(=O)C2CC2)CC1 [Olaparib] (first compound max 10 µM, 7x7, partner max 10 µM) : what is it?
0.121

Recorded combination Emax of C[C@@H](Nc1cc(F)cc(F)c1)c1cc(C(=O)N(C)C)cc2c(=O)cc(N3CCOCC3)oc12 [AZD8186] + CC(=O)c1c(C)c2cnc(Nc3ccc(N4CCNCC4)cn3)nc2n(C2CCCC2)c1=O [Palbociclib] (first compound max 10 µM, 7x7, partner max 10 µM) , please.
0.428

Could you share which combination Emax value was measured for O=C(c1cc(Cc2n[nH]c(=O)c3ccccc23)ccc1F)N1CCN(C(=O)C2CC2)CC1 [Olaparib] + COc1nnc2ccc(N3CCC(c4ccc(OCCN5CCN(C)C(=O)[C@H]5C)cc4)CC3)nn12 [AZD5153] (first compound max 10 µM, 7x7, partner max 1 µM) ?
0.224
